conditions: buffer; pH 7.4; 200.0 µM
Labels assigned by solubility kinetic range: I = under 8 µg/mL, II = from 8 µg/mL up to 30 µg/mL, III = 30 µg/mL and over

Molecule	Class assignment
COc1ccc2c(c1)C1OCCC1C(c1ccco1)N2 (stereo not given)	III
Cc1ccc(S(=O)(=O)N2CCOCC2)cc1NC(=O)COC(=O)C1(C)CC1(Cl)Cl (stereo not given)	III
O=C(CCSc1ccc(Cl)cc1)NC1CCCC1	III
CCOC(=O)C1CCN(Cc2ccc(O)c3ncccc23)CC1	I
COc1ccc(NC(=O)Cc2ccc(Cl)c(Cl)c2)cn1	II
CC(C)Cn1c(SCC(=O)Nc2ccc(Cl)cc2F)nc(O)cc1=O	III
O=C(Nc1nc2ccsc2c(=O)s1)c1ccc(F)cc1	I
O=C(COC(=O)CCc1ccccc1)NCc1ccccc1	III
O=C(c1ccccc1)N1CCCC(C(=O)N2CCCCC2)C1 (stereo not given)	III
CCOC(=O)C1CCCN(C(=O)c2ccc3ncsc3c2)C1 (stereo not given)	III
Cc1cc(SCC(=O)NCC2CCCO2)nc2ccccc12 (stereo not given)	III
CC1(C)CC2(C)OC(=N)C1(C#N)C2(C#N)C#N (stereo not given)	III
C[C@H](NC(=O)C(c1ccccc1)c1ccccc1)c1ccccc1	II
Clc1ccc(-c2cnc3n2CCCCC3)cc1	III
COc1ccc(-c2cc3nc4n(c(=O)c3s2)CCCCC4)cc1	I
COc1cccc(CNC(=O)c2cccnc2Sc2ccccc2)c1	I
Cc1ccc(C)c(C(=O)Nc2ccncc2)c1	III
O=C(O)c1cccc(NC2=C(N3CCOCC3)C(=O)c3ccccc3C2=O)c1	III
[O-]/[N+](=C\c1ccco1)c1ccc(Cl)cc1	III
CCOC(=O)C1CCN(C(=O)COc2ccc(C(=O)c3ccccc3)cc2)CC1	III
Cc1ccc(C(=O)NCC(=O)NCc2ccc(Cl)cc2)s1	I
COC1=C/C(=C/c2c(O)c(C#N)c3ccccn23)C=CC1=O	II
COc1ccc(NC(=O)CN2CCc3ccccc3C2)c(OC)c1	III
Cc1ccc(N2C(=O)C3C4C=CC(CC4)C3C2=O)cc1[N+](=O)[O-] (stereo not given)	II
O=C(CSC1=NS(=O)(=O)c2ccccc2N1)Nc1ccccc1F	III
